- Read-out: Pselectin, SELP (gene 6403)
- ASSAY_DETAILS: BSK_4H_Pselectin: BioMAP Diversity Plus: 4H Assay for Pselectin Biomarker Activity (AID 2283026)
- EXPERIMENTAL_SETUP: primary human endothelial cells (HUVEC); actives raise or lower the signal
The source made the active and inactive calls. How the source made its calls: active means hit-call score of the fitted dose curve at least 0.9, where 1 is the maximum; inactive means score below 0.9.
Bench note: report the call from true = active, false = inactive

Asked: # lookup: test call for CN(C)CCC(c1ccc(Cl)cc1)c1ccccn1 (stereo unspecified)
Given back: true

Asked: Hello, I am checking results. What call was entered for CC(C)CC(=O)CC(C)CC(C)C (stereo unspecified) ?
Given back: true

Asked: Query: recorded result category for CC[N+](CC)(CC(=O)Nc1c(C)cccc1C)Cc1ccccc1 in this test
Given back: false

Asked: # outcome recorded in this test, key = COc1ccccc1Oc1c(NS(=O)(=O)c2ccc(C(C)(C)C)cc2)nc(-c2ncccn2)nc1OCCO
Given back: false

---
Asked: Per the assay record, what outcome was assigned to Cc1cc(-n2nc3ccc(Cl)cc3n2)c(O)c(C(C)(C)C)c1 ?
Given back: false

Asked: What outcome does the record of this test show for CC(C)C1OCCN1CCOC(=O)NCCCCCCNC(=O)OCCN1CCOC1C(C)C (stereo unspecified) ?
Given back: false
